# average radiation intensity values compiled below
Tested on: female BALB/C mice
Assay: Live imaging in mice: protein expression of Fluc-mRNA delivered by LNP formulations
Format: in vivo
Conditions: 48 h after intramuscular injection
Number only, please.

Consider the following illustrative entries.
>>> test_result("CCCCCCCCCCOC(=O)CCCN(CCCCCC(=O)OCCC(CCCCCC)CCCCCC)C[C@H](O)CN(CC)CCO")
6551
>>> test_result("CCCCCCCCC(CCCCCCCC)OC(=O)CCCCCN(CCCCCC(=O)OC(CCCCCCCC)CCCCCCCC)C[C@H](O)CN(CC)CCO")
25560
>>> test_result("CCCCCCCCCCC(CCCCCCCCCC)CCCOC(=O)CCCN(CCCC(=O)OCCCC(CCCCCCCCCC)CCCCCCCCCC)C[C@H](O)CN(CCO)CCO")
36565
>>> test_result("CCCCCCCCC(CCCCCCCC)OC(=O)CCCCCN(CCCCCC(=O)OC(CCCCCCCC)CCCCCCCC)C[C@H](O)CN(CCO)CCO")
356810
>>> test_result("CCCCCCC(CCCCCC)CCOC(=O)CCCCCCCN(CCO)CCCCCCCC(=O)OCCC(CCCCCC)CCCCCC [Compound 23, reference compound]")
33125

Continue with the compound presented below.
The recorded average radiation intensity for CCCCCCCCC(CCCCCC)C(=O)OCCCCCCN(CCCCO)CCCCCCOC(=O)C(CCCCCC)CCCCCCCC (stereo not drawn) [ALC-0315, reference compound] is 39810

----------
Experiment: Particle size and polydispersity index (PDI) of lipid nanoparticles by dynamic light scattering
Type: physicochemical
Details: LNP formulation prepared from the cationic lipid, 25° C.
MEASUREMENT LABEL: PDI (%)
Write the answer as a number in %, unit excluded.

Consider the following illustrative entries.
>>> test_result("CCCCCCCCC(CCCCCCCC)OC(=O)CCCCCCCN(CCCCCCCC(=O)OC(CCCCCCCC)CCCCCCCC)C[C@H](O)CN(CCO)CCO")
19.6
>>> test_result("CCCCCCCCC(CCCCCCCC)COC(=O)CCCCCN(CCCCCC(=O)OCC(CCCCCCCC)CCCCCCCC)C[C@H](O)CN(CCO)CCO")
17.5

Continue with the molecule presented below.
The recorded PDI (%) for CCCCCCCCC(CCCCCCCC)OC(=O)CCCCCN(CCCCCC(=O)OC(CCCCCCCC)CCCCCCCC)C[C@H](O)CN(CCO)CCO is 14.8

----------
Tested on: 293T cells
Experiment: Fluorescent detection of Fluc-mRNA (cell transfection efficiency of LNP formulations)
Assay type: cell-based
Details: LNP formulation of Fluc-mRNA, 96-well plate, 24 hours
MEASUREMENT LABEL: Relative light unit (RLU)
Write the answer as a number in RLU, unit excluded.

Consider the following illustrative entries.
>>> test_result("CCCCCCC(CCCCCC)CCOC(=O)CCCCCCCN(CCO)CCCCCCCC(=O)OCCC(CCCCCC)CCCCCC [Compound 23, reference compound]")
1356022
>>> test_result("CCCCCCC(CCCCCC)CCOC(=O)CCCCCN(CCCCCC(=O)OCCC(CCCCCC)CCCCCC)C[C@H](O)CN(C)CCO [YK-306]")
2197174
>>> test_result("CCCCCCC(CCCCCC)CCOC(=O)CCCCCN(CCCCCC(=O)OCCC(CCCCCC)CCCCCC)C[C@H](O)CN(CC)CCO [YK-311]")
1963636
>>> test_result("CCCCCCCCCCOC(=O)CCCN(CCCCCC(=O)OCCC(CCCCCC)CCCCCC)C[C@H](O)CN(C)CCO [YK-302]")
27778
>>> test_result("CCCCCCCCCCOC(=O)CCCN(CCCCCC(=O)OCC(CCCCCCCC)CCCCCCCC)C[C@H](O)CN(CC)CCO [YK-308]")
5036582

The recorded Relative light unit (RLU) for CCCCCCCCCCOC(=O)CCCN(CCO)CCCCCC(=O)OCC(CCCCCCCC)CCCCCCCC [YK-009, reference compound] is 5118942

The recorded Relative light unit (RLU) for CCCCCCCCCCOC(=O)CCCN(CCCCCC(=O)OCC(CCCCCCCC)CCCCCCCC)C[C@H](O)CN(C)CCO [YK-301] is 842452

Attribution: patent US20260007613A1
